# TEST_NAME: Plasma concentration in human 697 cells xenografted NOD.Cg-Prkdcscid Il2rgtm1Wjl/SzJ mouse at 3 mg/kg, po administered as single dose measured after 30 mins post dose
# Format: ADME, organism-based
# Set-up: dose 3 mg/kg, route oral
QUANTITY_MEASURED: concentration at 0.5 h (nM)
Reply numerically in nM, unit not repeated.

input: Fill in reported concentration at 0.5 h for this entry: CCCCNc1ncc2c(-c3ccc(CN4CCN(C)CC4)cc3)cn([C@H]3CC[C@H](O)CC3)c2n1
output: 1600

====

# TEST_NAME: Clearance in Swiss albino mouse at 3 mg/kg, iv
# Format: ADME, organism-based
# Design: dose 3 mg/kg, route intravenous
# SETTINGS: in vivo
QUANTITY_MEASURED: clearance (mL/min/kg)
# output: bare number, implied unit mL/min/kg

Here are 4 compounds together with their reported answers.
| COMPOUND | VALUE_UNITS | clearance |
| --- | --- | --- |
| CCCCNc1ncc2c(-c3ccc(S(=O)(=O)N4CCOCC4)cc3)cn([C@H]3CC[C@H](O)CC3)c2n1 | mL/min/kg | 70 |
| CCCCNc1ncc2c(-c3ccc(CN4CCN(C)CC4)cc3)cn([C@H]3CC[C@H](O)CC3)c2n1 | mL/min/kg | 9.2 |
| CN1CCN(S(=O)(=O)c2ccc(-c3cn([C@H]4CC[C@H](O)CC4)c4nc(NCCC5CC5)ncc34)c(F)c2)CC1 | mL/min/kg | 76 |
| CCCCNc1ncc2c(-c3ccc(S(=O)(=O)N4CCOCC4)cc3)nn([C@H]3CC[C@H](O)CC3)c2n1 | mL/min/kg | 30 |

Please look at the following compound next.
input: Supply measured clearance of CN1CCN(Cc2ccc(-c3cn([C@H]4CC[C@H](O)CC4)c4nc(NCCC5CC5)ncc34)cc2)CC1 in your reply.
output: 7.2

====

# TEST_NAME: Tmax in Swiss albino mouse at 10 mg/kg, po
# Type: ADME, organism-based
# Design: dose 10 mg/kg, route oral
# SETTINGS: in vivo
QUANTITY_MEASURED: Tmax (min)
The response must be a number in min with no trailing unit.

input: Please give measured Tmax of the following entry: CCCCNc1ncc2c(-c3ccc(S(=O)(=O)N4CCN(C)CC4)c(F)c3)cn([C@H]3CC[C@H](O)CC3)c2n1
output: 15

====

# TEST_NAME: Half life in Swiss albino mouse at 3 mg/kg, iv
# Format: ADME, organism-based
# Design: dose 3 mg/kg, route intravenous
# SETTINGS: in vivo
Recorded half-life for the following compounds
Respond with the bare value in h.

Sample answers from the record:
| COMPOUND | half-life [h] |
| --- | --- |
| CCCCNc1ncc2c(-c3ccc(CN4CCN(C)CC4)cc3)cn([C@H]3CC[C@H](O)CC3)c2n1 | 3.8 |
| CCCCNc1ncc2c(-c3ccc(S(=O)(=O)N4CCOCC4)cc3)cn([C@H]3CC[C@H](O)CC3)c2n1 | 0.23 |
| CCCCNc1ncc2c(-c3ccc(S(=O)(=O)N4CCOCC4)cc3)nn([C@H]3CC[C@H](O)CC3)c2n1 | 2.3 |

input: Tell me its half-life given CN1CCN(Cc2ccc(-c3cn([C@H]4CC[C@H](O)CC4)c4nc(NCCC5CC5)ncc34)cc2)CC1 as the entry.
output: 4.4

input: Indicate the recorded half-life value for this compound: CN1CCN(S(=O)(=O)c2ccc(-c3cn([C@H]4CC[C@H](O)CC4)c4nc(NCCC5CC5)ncc34)c(F)c2)CC1
output: 1.2
